studyTarget: T1, human myostatin (mature, recombinant; R&D Systems) (human, UniProt O14793 267-375)
T1 construct: biotinylated in the mRNA display selection; also called GDF-8; mature myostatin
T1 sequence: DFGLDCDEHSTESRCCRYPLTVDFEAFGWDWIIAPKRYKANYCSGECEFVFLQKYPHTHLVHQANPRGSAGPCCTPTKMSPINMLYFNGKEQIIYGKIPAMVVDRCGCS
assaySummary: SPR format A, 25C
measurementLabel: pKd
FYI, pKd means -log10 of a concentration in mol per litre.

Use these answered entries as a reference point.
>  <binder>
2524_H11 (designed binder) MGVSDVPRDLEVVAATPTSLLISWSLPHAGHAHYYRITYGETGGNSPVQEFTVPGRGVTATISGLKPGVDYTITVYAVTVSSTKVIVYLPISINYRTEIDKPSQHHHHHH

>  <measurementLabel>
pKd

>  <valueMeasured>
8.95

$$$$
>  <binder>
ATI-1266 [40K 2-branch PEG] (designed binder, 40K 2-branch PEG on the Cys of the EGSGC tail, cysteine mutant of 2525_D02) MGVSDVPRDLEVVAATPTSLLISWTLPHAGRAHYYRITYGETGGNSPVQEFTVPGRGVTATISGLKPGVDYTITVYAVTVTTTSVILYKPISINYRTEGSGCHHHHHH

>  <measurementLabel>
pKd

>  <valueMeasured>
9.12

$$$$

Now for a further binder.
Ask | // pKd lookup, key: ATI-1378 [40K 2-branch PEG] (designed binder, 40K 2-branch PEG on the Cys of the EGSGC tail, cysteine mutant of 3146_A08) MGVSDVPRDLEVVAATPTSLLISWSLPNPGNAHYYRITYGETGGNSPVQEFTVPGRGVTATISGLKPGVDYTITVYAVTVTDTGFITYKPISINYRTEGSGCHHHHHH
Reply | 7.84
